systemName: Pol-γA S305R (exo+);Pol-γB accessory subunit (Homo sapiens;Homo sapiens, UniProt P54098;Q9UHN1 26-1239;26-485, S305R|)
Sequence (P54098 26-1239 S305R, chain 1 of 2): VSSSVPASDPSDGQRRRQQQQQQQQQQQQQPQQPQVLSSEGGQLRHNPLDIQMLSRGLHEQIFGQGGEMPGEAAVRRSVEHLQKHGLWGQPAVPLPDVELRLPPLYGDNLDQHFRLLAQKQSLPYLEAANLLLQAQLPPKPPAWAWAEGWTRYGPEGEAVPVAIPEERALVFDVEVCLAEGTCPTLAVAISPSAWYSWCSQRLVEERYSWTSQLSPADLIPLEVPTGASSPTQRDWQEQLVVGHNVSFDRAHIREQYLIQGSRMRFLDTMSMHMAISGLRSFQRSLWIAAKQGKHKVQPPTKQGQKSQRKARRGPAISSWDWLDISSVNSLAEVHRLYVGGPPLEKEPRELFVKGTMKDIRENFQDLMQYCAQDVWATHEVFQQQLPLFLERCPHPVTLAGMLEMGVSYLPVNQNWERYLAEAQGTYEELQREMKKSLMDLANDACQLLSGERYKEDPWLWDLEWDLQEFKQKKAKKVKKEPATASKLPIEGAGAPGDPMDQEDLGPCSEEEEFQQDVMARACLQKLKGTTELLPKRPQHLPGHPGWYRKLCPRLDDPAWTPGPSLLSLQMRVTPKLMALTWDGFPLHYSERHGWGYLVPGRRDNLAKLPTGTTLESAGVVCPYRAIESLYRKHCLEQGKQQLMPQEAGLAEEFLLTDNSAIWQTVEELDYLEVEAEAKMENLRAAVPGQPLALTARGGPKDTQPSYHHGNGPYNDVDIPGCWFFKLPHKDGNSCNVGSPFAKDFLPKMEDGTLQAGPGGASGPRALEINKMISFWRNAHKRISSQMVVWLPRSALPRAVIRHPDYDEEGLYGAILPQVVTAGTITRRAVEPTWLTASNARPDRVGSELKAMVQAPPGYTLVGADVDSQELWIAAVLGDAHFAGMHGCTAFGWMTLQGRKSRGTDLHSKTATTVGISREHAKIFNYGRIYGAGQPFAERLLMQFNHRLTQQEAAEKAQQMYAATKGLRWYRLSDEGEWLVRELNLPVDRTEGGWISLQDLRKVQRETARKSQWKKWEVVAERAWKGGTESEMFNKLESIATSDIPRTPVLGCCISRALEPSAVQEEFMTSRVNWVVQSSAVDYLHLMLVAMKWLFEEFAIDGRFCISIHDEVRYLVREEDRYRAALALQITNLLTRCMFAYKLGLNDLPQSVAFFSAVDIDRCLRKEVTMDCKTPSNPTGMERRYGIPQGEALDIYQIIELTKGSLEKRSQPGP
Sequence (Q9UHN1 26-485, chain 2 of 2): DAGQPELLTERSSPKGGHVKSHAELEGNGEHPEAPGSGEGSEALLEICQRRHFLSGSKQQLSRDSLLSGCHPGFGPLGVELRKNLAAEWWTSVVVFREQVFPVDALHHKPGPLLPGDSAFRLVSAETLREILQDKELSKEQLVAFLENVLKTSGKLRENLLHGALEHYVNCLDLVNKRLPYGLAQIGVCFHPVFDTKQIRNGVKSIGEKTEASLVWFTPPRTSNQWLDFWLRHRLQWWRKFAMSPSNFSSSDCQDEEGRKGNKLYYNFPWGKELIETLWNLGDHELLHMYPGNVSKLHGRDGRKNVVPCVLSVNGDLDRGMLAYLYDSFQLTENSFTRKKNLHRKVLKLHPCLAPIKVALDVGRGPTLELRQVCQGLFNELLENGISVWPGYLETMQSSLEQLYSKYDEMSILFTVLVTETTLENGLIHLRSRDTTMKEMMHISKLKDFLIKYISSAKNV
testMethodNotes: global fit of pre-steady-state single-nucleotide incorporation kinetics (quench flow, DNA titration); 12.5 mM Mg2+, dATP; 12.5 mM Mg2+, 37 °C; enzyme and DNA preincubated, rapid quench flow; buffer, salt and pH not given in the material. Table 1 WT Kd (9.9 ± 2.1 nM) is asterisked as apparently earlier data and not listed
settings: protein: recombinant;recombinant; tags: ;; copies: 1;2; label: 5'-32P primer; 5' overhang 20 nt on template, recessed primer 3' end
pKd: −log10 of the molar value.
measuredProperty: pKd

binder	measuredProperty	reading
25-mer/45-mer primer-template (dsDNA) DNA 1: GCCTCGCAGCCGTCCAACCAACTCA DNA 2: GGACGGCATTGGATCGAGGTTGAGTTGGTTGGACGGCTGCGAGGC	pKd	7.00
